These entries and their values trace back to patent US20230398130A1.

# Test system: ISC-enriched organoids
# ASSAY COMMENT: Primary screen, 384-well 2.5-D organoid differentiation (ENR+CD, 6 days): basal lysozyme secretion (LYZ.NS)
# Type: cell-based, murine
# TEST CONTEXT: Dose 10.00 uM; ENR+CD, 6 days; FC vs plate median
Dose.FC.LYZ.NS of -0.1 log 2 fold change or higher: 1 (yes). Under -0.1 log 2 fold change: 0 (no).

> print(dat)
                                   compound            study.system  class.assignment
1  CS(=O)(=O)N1CCN(Cc2cc3nc(-c4cccc5[nH]ncc45)nc(N4CCOCC4)c3s2)CC1 [GDC-0941]  ISC-enriched organoids            0 (no)
2  C[C@H]1COC2=C1C(=O)C(=O)c1c2ccc2c1CCCC2(C)C [Cryptotanshinone]  ISC-enriched organoids            0 (no)
3  C[C@@H]1C(=O)O[C@H]2C[C@@]34[C@H]5C[C@@H](C(C)(C)C)[C@]36[C@@H](OC(=O)[C@@H]6O)O[C@@]4(C(=O)O5)[C@]21O [Ginkgolide A]  ISC-enriched organoids           1 (yes)
4  C[C@H](N[C@@H](CCc1ccccc1)C(=O)O)C(=O)N1CCC[C@H]1C(=O)O.O.O [Enalaprilat Dihydrate]  ISC-enriched organoids            0 (no)
5  CC(C)C[C@H](NC(=O)[C@@H](NC(=O)c1cccc(-c2ccccc2)n1)[C@@H](C)O)B(O)O [CEP-18770 (Delanzomib)]  ISC-enriched organoids           1 (yes)
6  C[C@]12C=CC(=O)N[C@@H]1CC[C@@H]1[C@@H]2CC[C@]2(C)[C@@H](C(=O)Nc3cc(C(F)(F)F)ccc3C(F)(F)F)CC[C@@H]12 [Dutasteride]  ISC-enriched organoids           1 (yes)
7  O=C(NC(NC(=S)Nc1ccc(F)c([N+](=O)[O-])c1)C(Cl)(Cl)Cl)C(c1ccccc1)c1ccccc1 (stereo not shown) [CGK733]  ISC-enriched organoids            0 (no)
